Data credit: PubChem BioAssay (NCI)

Readings of TGI for the listed compounds
# Test system: SF-539 CNS
# Test: NCI tumour cell line growth inhibition, 48 h
Measured Metric: TGI

> print(dat)
                                    compound  measured.metric      value
 1  O=C(Nc1cc(Cl)c(Cl)cc1Cl)C(=O)C1C=CCS1(=O)=O (configuration not stated)              TGI   > 100 µM
 2       COc1ccc2cc(Oc3ccc(Cl)cc3)c(=O)oc2c1              TGI   > 100 µM
 3                      CSc1nc(C)c2c(n1)SCC2              TGI    > 10 µM
 4  COc1ccc(Nc2nnc(CCCCCCCCc3nnc(Nc4ccc(OC)cc4)o3)o2)cc1              TGI   > 100 µM
 5             C=C(Cl)c1c(OC)cccc1OCc1ccccc1              TGI   > 100 µM
 6  CCOC(=O)C(Cc1c[nH]c2ccc(N)cc12)(NC(C)=O)C(=O)OCC              TGI  > 1000 µM
 7  O=C(c1ccccc1)c1ccc2nc3n(c2c1)C(c1c(F)cccc1F)SC3 (configuration not stated)              TGI  > 47.8 µM
 8  Cc1c(C)c2c(c(N)c1C#N)C(=O)N(CCc1ccccc1)C2=O              TGI   > 100 µM
 9  COc1cc(C2SCC(=O)N2c2ccccc2Cl)cc(OC)c1OC (configuration not stated)              TGI   > 100 µM
10  CCOC(=O)C(N)C[S][Sn]([CH3])([CH3])[Cl] (configuration not stated)              TGI   > 100 µM
11             CC(=O)C(=[N+]=[N-])C(=O)NCC#N              TGI    > 10 µM
12  CCOC(=O)C1=CN/C(=C(/C)C(=O)OC)SC1C(=O)OCC (configuration not stated)              TGI   > 100 µM
